# Test system: MDA-MB-231
# measurement_description: NCI tumour cell line growth inhibition, 48 h
Activity calls are given as the source filed them. No stated cut-off is given here; in the data, active = GI50 up to about 1.1 µM and inactive = higher.
readout_kind: GI50

| molecule | value_reported |
| --- | --- |
| O=C1O/C(=C\c2ccc(O)cc2)C(c2ccc(O)c(Cl)c2)=C1Br | 21.8 µM (inactive) |
| Nc1ccn(C2CC3OCC3O2)c(=O)n1 (stereo not drawn) | > 100 µM (inactive) |
| [N-]=[N+]=NC1C(O)C(CO)OC1n1ccc(=O)[nH]c1=O (stereo not drawn) | > 875 µM (inactive) |

----------
# System: Hs-578T
# measurement_description: NCI tumour cell line growth inhibition, 48 h
Active and inactive are the calls of the source. No stated cut-off is given here; in the data, active = GI50 up to about 1.1 µM and inactive = higher.
Outcome codes: active, inactive

| molecule | measured_on | assigned_category |
| --- | --- | --- |
| CN(C)CN1C(=O)/C(=N\n2c(S)nnc2-c2ccncc2)c2ccccc21 | Hs-578T | inactive |
| CCCCCCCCCCCCN1[C@H]2CCC[C@H]2C(O)[C@@H]2CCC[C@@H]21 (stereo partly drawn) | Hs-578T | inactive |
| NS(=O)(=O)c1ccc(NCc2cnc3ccccc3c2)cc1 | Hs-578T | inactive |
| COc1cccc(C(=O)C#Cc2cnc(OC)nc2OC)c1 | Hs-578T | inactive |
| O=C(NNC(=O)c1ccccc1O)c1ccc(O)cc1 | Hs-578T | inactive |
| O=C(O)c1cc2c(cc1CC(Cc1ccc3c(c1)CCC3)C(=O)O)CCC2 (stereo not drawn) | Hs-578T | inactive |
| O=C(O)c1ccccc1NCn1c(=S)sc2ccccc21 | Hs-578T | inactive |
| O=C1c2cccc3cccc(c23)C(=O)N1O | Hs-578T | inactive |
| O=c1c2ccccc2nc(Cc2nc(-c3ccc(Cl)cc3)cs2)n1-c1ccc(Cl)cc1 | Hs-578T | inactive |
| COc1cc2c(c(OC)c1OC)-c1ccc(OC)c(=O)cc1C(NC(=O)COc1ccccc1)CC2 (stereo not drawn) | Hs-578T | active |
| Cc1ccc(S(=O)(=O)OCC(=O)O)cc1 | Hs-578T | inactive |
| COc1cc(OC)nc(-n2c(N)c(C(=O)O)c3ccc([N+](=O)[O-])cc3c2=O)n1 | Hs-578T | inactive |
| CCOP(=O)(CC1OC(CO)C(O)C1O)OCC (stereo not drawn) | Hs-578T | inactive |
| COc1ccc(Nc2nc3ccccc3nc2C(=O)O)cc1OC | Hs-578T | inactive |
| Cc1cn2c(/C=N/NC(=N)N)c(-c3ccc(Cl)c([N+](=O)[O-])c3)nc2s1 | Hs-578T | active |
| O=C1NC2(CN3CCC2CC3)C(=O)N1CN(Cc1ccccc1)c1ccccc1 (stereo not drawn) | Hs-578T | inactive |
| CCOC(=O)C(NC(=O)c1cccc(Cl)c1)(Nc1ccc(S(=O)(=O)Nc2cc(C)on2)cc1)C(F)(F)F (stereo not drawn) | Hs-578T | inactive |
| COC(=O)C(=CNC(N)=O)C(=O)OC | Hs-578T | inactive |

----------
# System: MCF7
# measurement_description: NCI tumour cell line growth inhibition, 48 h
Active and inactive are the calls of the source. No stated cut-off is given here; in the data, active = GI50 up to about 1.1 µM and inactive = higher.
Outcome codes: class 1 = active, class 0 = inactive

| compound | measured_on | assigned_category |
| --- | --- | --- |
| O=c1sc(Nc2ccc3ccccc3c2Cl)nc2ccccc12 | MCF7 | class 0 |
| CC1(C)CC(O)CC(C)(C)N1O [TEMPOL HYDROXYLAMINE] | MCF7 | class 0 |
| O=C(CC(=O)Nc1ccccc1Cl)NNC(c1cc(/N=N/c2ccc(Br)cc2)ccc1O)P(O)O (centres undefined) | MCF7 | class 1 |
| COC(=O)[C@@]12C(=O)C=CC(=O)[C@@H]1C1C(=CC2COC(C)=O)O[C@@H]2OC3(CCCCC3)O[C@H]12 (some centres undefined) | MCF7 | class 0 |

----------
# Tested on: OVCAR-3
# measurement_description: NCI tumour cell line growth inhibition, 48 h
Activity calls are given as the source filed them. Rule as the data show it: active = GI50 up to about 1.1 µM and inactive = higher.

| molecule | GI50 |
| --- | --- |
| C\C=C/C=C/C=C/C(=O)O | > 100 µM (inactive) |
| CCCCCCCCCCCC(=O)C1=C(O)CCC(O)C1=O (centres undefined) | 10.8 µM (inactive) |
| O=[N+]([O-])c1ccc(Cl)cc1N/N=C/c1cccc2cccnc12 | > 100 µM (inactive) |
| CNC(=O)CNC(=O)N(C[C@@H]1CCCN1C(=O)[C@H](CC(C)C)NC(=O)OC(C)(C)C)C(C)C | > 100 µM (inactive) |
| [O-][S+](CCCl)c1c2ccccc2nc2ccccc12 (centres undefined) | > 100 µM (inactive) |
| Cc1ncc2c(n1)CCC1=C2OS(=O)(=O)CC1N(C)C (centres undefined) | > 100 µM (inactive) |
| COC(=O)C1=C(O)c2cc3c(cc2[C@H](c2cc(OC)c(OC)c(OC)c2)C1C(=O)OC)OCO3 (some centres undefined) | 30.4 µM (inactive) |
| O=C(O)CCCCCCC[C@H]1S[C@H]1CCCCCCO | > 100 µM (inactive) |
| CC1(O)CC2C(CC1SCCO)C2(C)C (centres undefined) | > 100 µM (inactive) |

----------
# Test system: Malme-3M
# measurement_description: NCI tumour cell line growth inhibition, 48 h
Activity calls are given as the source filed them. Rule as the data show it: active = GI50 up to about 1.1 µM and inactive = higher. Residues, ends and D or L forms follow the SMILES beside them. *: point of attachment. Boc = CC(C)(C)OC(=O)*
Outcome codes: active, inactive

| molecule | assigned_category |
| --- | --- |
| COc1nc(C(=O)NNC(=O)c2nc(OC)c3ccccc3c2-c2ccccc2)c(-c2ccccc2)c2ccccc12 | inactive |
| CC(NC(=O)C(NC(=O)OC(C)(C)C)C(C)C)C(=O)N1CCCC1C(=O)NCC(=O)NC(C(=O)NCC(=O)O)C(C)C (stereo not drawn) (Boc-VAPGVG-OH; configuration not given here) | inactive |
| COc1ccc2c(c1)[n+]([O-])c(-c1cccc(Cl)c1)c(N)[n+]2[O-] | inactive |
| O=[N+]([O-])c1ccc(-n2nnc(C3=NCCN3)c2-c2ccccc2)cc1 | inactive |
| CSCC[C@H]1C(=O)N=C(N)N1C(=O)OCc1ccccc1 | inactive |
| CO[C@H]1c2cccc3cccc(c23)[C@@H]1n1[nH]c(=O)n(C(C)(C)C)c1=O | inactive |
| COC(=O)C1=C(C)N(NC(N)=O)C(C)(O)C12CCOC2=O (stereo not drawn) | inactive |
| NNC(=S)NCCNC(=S)NN | inactive |
| C=CCCCCC1CCC2CCC(CCCCC=C)N12 (stereo not drawn) | inactive |
| O=C1N/C(=N/N=C/C(O)C(O)C(O)C(O)CO)N/C1=C\c1cccs1 (stereo not drawn) | inactive |
| c1ccc(-c2c(-c3[nH]c4ccccc4c3-c3ccccc3)[nH]c3ccccc23)cc1 | inactive |
| CCOc1ccccc1NC(=O)C1=C(C)NC(C)=C(C(=O)Nc2ccccc2OCC)C1c1cccc([N+](=O)[O-])c1 | inactive |
| CCc1nc(Cl)nc(Cl)c1Cl | active |

----------
# Test system: HOP-62
# measurement_description: NCI tumour cell line growth inhibition, 48 h
Active and inactive are the calls of the source. Cut-off read from the data, not from the text of the source: active = GI50 up to about 1.1 µM and inactive = higher.
Outcome codes: active, inactive

| molecule | measured_on | assigned_category |
| --- | --- | --- |
| O=[N+]([O-])c1ccc(-n2nnc(C3=NCCN3)c2-c2ccccc2)cc1 | HOP-62 | inactive |
| CC1=NN(C(=O)c2ccccc2O)C(=O)/C1=C/c1ccc(O)cc1 | HOP-62 | active |
| C/C(=N/NC(=O)c1ccccc1S(N)(=O)=O)C(CN1CCCCC1)C(C1=C(O)C2C=CC=CC2OC1=O)c1ccccc1 (centres undefined) | HOP-62 | inactive |
| COC(=O)c1s/c(=N\C(=S)N(C)C)n(-c2ccccc2)c1C(=O)OC | HOP-62 | inactive |

----------
# Test system: DU-145
# measurement_description: NCI tumour cell line growth inhibition, 48 h
Calls of active or inactive are those of the source. No stated cut-off is given here; in the data, active = GI50 up to about 1.1 µM and inactive = higher.
Outcome codes: active, inactive

| compound | assigned_category |
| --- | --- |
| O=c1sc(Nc2ccc3ccccc3c2Cl)nc2ccccc12 | inactive |
| Cc1cccc2nc3c(=O)[nH]c(=O)nc-3n(C)c12 | inactive |
| CC(=O)C1(O)Cc2c(O)c3c(c(O)c2C(OC2CC(N)C(O)C(C)O2)C1)C(=O)c1ccccc1C3=O (configuration not stated) | active |
| N#CC1C(=O)NC(=O)C(C#N)C1c1ccc(Cl)c(Cl)c1 (configuration not stated) | inactive |
| NNC(=S)NCCNC(=S)NN | inactive |
| OCC1COc2cc(Cl)c(Cl)cc2O1 (configuration not stated) | inactive |
| CC1(C)C(=O)C=CC2(C)C1CC(O)C1(C)C2CCC2(C)C(c3ccoc3)OC(=O)C3OC321 (configuration not stated) | inactive |
